Target: von Willebrand factor (VWF) (Homo sapiens, UniProt P04275 P04275:764-2813)
Experiment: filter; Bmax 54%; 2 mM CaCl2, 37 C
Settings: tags: factor VIII free, Haematologic Technologies Inc; label: 5'-32P
I'd appreciate it if you could supply Kd values for the items below.
One number for each entry, in nM.

Worked examples follow.
{"columns": ["Binder", "Measurement Kind", "Unit Label", "Val"],
 "data": [
  ["ACGAACUGCCCUCAGCUACUUUCAUGUUGCUGACGCACAGACGU (ssRNA, mAfCrGrArAfCfUrGfCfCfCfUfCrArGfCfUrAfCfUfUfUfCrAfUrGfUfUrGfCfUrGrAfCrGfCrAfCrArGrAfCrGmU-idT) [T25 vrt14]", "Kd", "nM", 9.2],
  ["ACGAACUGCCCUCAGCAUUUCAUUGCUGACGCACAGACGU (ssRNA, 2'-F C and U; 2'-OH A and G; 3' idT) [T40]", "Kd", "nM", 11],
  ["T11 (ssRNA, 2'-F C and U; 2'-OH A and G) RNA: GGGAGGACGAACUGCCCUCAGCUACUUUCAUGUUGCUGACGCACAGACGACUCGCUG", "Kd", "nM", 16.5]
]}

Now turn to the next binder.
INPUT: # return recorded Kd for input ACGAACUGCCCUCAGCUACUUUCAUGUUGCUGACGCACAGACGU (ssRNA, 2'-F C and U; 2'-OH A and G; 3' idT) [T25]
OUTPUT: 13.4
